Source of measurements: patent US20080312292A1

Here, each record is paired with measured pIC50 data.
target: human CB2R (Homo sapiens, UniProt P34972); construct: expressed in transfected cells; host or cells: CHO cells; assay: Cannabinoid receptor-mediated suppression of forskolin-stimulated cAMP synthesis, CB2R; format: cell-based
Sequence (P34972 whole entry): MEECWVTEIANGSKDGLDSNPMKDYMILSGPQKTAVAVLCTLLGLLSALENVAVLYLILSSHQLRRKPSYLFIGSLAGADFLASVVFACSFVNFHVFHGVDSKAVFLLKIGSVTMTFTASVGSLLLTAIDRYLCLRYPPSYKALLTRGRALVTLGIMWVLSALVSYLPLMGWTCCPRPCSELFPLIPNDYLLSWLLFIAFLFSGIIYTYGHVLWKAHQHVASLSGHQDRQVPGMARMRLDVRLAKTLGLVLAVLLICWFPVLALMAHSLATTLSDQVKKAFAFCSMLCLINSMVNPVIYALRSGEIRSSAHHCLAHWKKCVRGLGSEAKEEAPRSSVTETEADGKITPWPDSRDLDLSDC
Please keep in mind that pIC50 is minus log10 of the molar concentration; only the number is needed.

Use these answered entries as a reference point.
CCCCn1c2c(cc(C(=O)NCCc3ccc(N)cc3)c1=O)CCCCCC2 | 8.01
CCCCn1c(C)c(I)cc(C(=O)NCCc2ccccc2)c1=O | 7.54

Please supply the value of reported pIC50 for the item CCCCn1c2c(cc(C(=O)NCc3ccccc3)c1=O)CCCC2
7.19

Please supply the value of reported pIC50 for the item CCCCn1c2c(cc(C(=O)NCCc3ccccc3)c1=O)CCCCCC2
8.77

###

biological target: human CB1R (Homo sapiens, UniProt P21554); construct: expressed in transfected cells; host or cells: CHO cells; assay: cell-based; conditions: CHO cells expressing human CB1R; read-out: cAMP Inhibition: IC50 CB1
Sequence (P21554 whole entry): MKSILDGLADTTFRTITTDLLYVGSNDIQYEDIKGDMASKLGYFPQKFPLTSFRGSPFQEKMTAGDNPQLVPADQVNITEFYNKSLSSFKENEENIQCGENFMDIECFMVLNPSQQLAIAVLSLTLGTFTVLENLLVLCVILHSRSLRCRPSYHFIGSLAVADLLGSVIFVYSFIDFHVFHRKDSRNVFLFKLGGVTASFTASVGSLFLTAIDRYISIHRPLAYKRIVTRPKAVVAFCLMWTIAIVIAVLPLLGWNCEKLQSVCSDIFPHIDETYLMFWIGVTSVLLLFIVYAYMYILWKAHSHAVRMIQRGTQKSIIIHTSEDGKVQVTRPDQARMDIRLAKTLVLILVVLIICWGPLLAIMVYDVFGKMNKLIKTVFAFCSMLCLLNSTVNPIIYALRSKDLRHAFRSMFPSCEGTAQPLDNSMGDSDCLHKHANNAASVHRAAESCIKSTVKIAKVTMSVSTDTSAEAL
Here, each record is paired with measured pIC50 data.
Please keep in mind that pIC50 is minus log10 of the molar concentration; only the number is needed.

CSC(=S)N1CC2(CCCCC2)CSC1=Nc1ccccc1C(C)C [Compound I-270] | 7.16
CCCCn1c2c(cc(C(=O)NCc3ccccc3)c1=O)CCCCCC2 [Compound 4-101] | 7.22
C=CCSC(=S)N1CC2(CCCCC2)CSC1=Nc1ccccc1OC [II-86] | 7.77

Enter measured pIC50, system human CB1R (Homo sapiens, UniProt P21554), for the molecule shown: CCCCn1c2c(cc(C(=O)NC3CCCCC3)c1=O)CCCCCC2 [Compound 10-035]
7.54

###

Here, each record is paired with measured melting point data.

CC(C)OC(=O)CSC(=S)N1CC(C)(C)CSC1=Nc1ccccc1C(C)C [II-13] | 95 to 96 °C
C=CCSC(=S)N1CC2(CCCCC2)CSC1=Nc1ccc(CC)cc1 [II-88] | 98 to 100 °C
C=CCSC(=S)N1CC2(CCOCC2)CSC1=Nc1ccccc1C(C)C [II-92] | 73.5 to 75 °C

Please supply the value of reported melting point for the item Cc1ccc(Oc2nc3ccccc3o2)c(=S)n1C
245 to 247 °C

Please supply the value of reported melting point for the item CCNC(=O)N1CC(C)(C)CSC1=Nc1ccccc1C(C)C [Compound I-92]
52 to 53 °C

Please supply the value of reported melting point for the item CCSC(=O)N1CC(C)(C)CSC1=Nc1ccc([N+](=O)[O-])cc1C(C)C [Compound I-46]
119 to 120 °C

Please supply the value of reported melting point for the item C=CCSC(=S)N1CC2(CCCCC2)CSC1=Nc1ccccc1OC [II-86]
108.5 to 109.5 °C

Please supply the value of reported melting point for the item COc1c(Oc2nc3ccccc3o2)c(C)c(C)n(Cc2ccccc2)c1=O
197 to 198 °C

Please supply the value of reported melting point for the item CCSC(=S)N1CC(C)(C)CSC1=Nc1ccccc1C(C)C [Compound I-84]
68 to 70 °C

Please supply the value of reported melting point for the item CSC(=O)N1CC(C)(C)CSC1=Nc1ccccc1C(C)C [Compound I-50]
95 to 96 °C

###

Here, each record is paired with measured Antipruritic Effect (%) data.
system: compound 48/80-induced pruritus; assay: Inhibitory effect on compound 48/80-induced pruritus in ICR strain mice; settings: 100 mg/kg (p.o.), ICR mice, compound 48/80-induced scratching
Marks after values point to notes of the source that are not given here.

CCCCn1c2c(cc(C(=O)NCc3ccccc3)c1=O)CCCCCC2 | 81** %
C=CCSC(=S)N1CC2(CCCCC2)CSC1=Nc1ccccc1OC | 98** %
CSC(=S)N1CC2(CCCCC2)CSC1=Nc1ccccc1C(C)C | 98** %
Cc1c(C(=O)c2cccc3ccccc23)c2cccc3c2n1[C@H](CN1CCOCC1)CO3 [WIN55212-2, reference compound] | 70* %

Kindly review the next molecule as well.
Please supply the value of reported Antipruritic Effect (%) for the item CCCCn1c2c(cc(C(=O)NC3CCCCC3)c1=O)CCCCCC2
93** %
